test system: A549; assay: Anticancer activity against human A549 cells assessed as inhibition of cell proliferation incubated for 48 hrs by MTT assay; type: functional, cell-based; conditions: A549, 48 h
experimental.endpoint: IC50
Show the value, then the unit it is measured in.

Exam item: So what does the record say about IC50 for CC(C)=CC[C@@H](O)C1=CC(=O)c2c(O)ccc(O)c2C1=O [SHIKONIN] ?
Marked response: 5.06 µM

* * *

# IC50 per entry
test: Anticancer activity against human A875 cells assessed as inhibition of cell growth incubated for 24 hrs by MTT assay; assay type: functional, cell-based; conditions: A875, 24 h
Output spec: scalar in nM, unitless text.

compound | IC50, nM
CC(C)=CC[C@@H](OC(=O)CCCOc1ccc(Cl)cc1C)C1=CC(=O)c2c(O)ccc(O)c2C1=O | 1520
CC(C)=CC[C@@H](O)C1=CC(=O)c2c(O)ccc(O)c2C1=O [SHIKONIN] | 460
COc1cc2c(c(OC)c1OC)-c1ccc(OC)c(=O)cc1[C@@H](NC(C)=O)CC2 [COLCHICINE] | 750

Now, please, on to the next compound.
Exam item: So what does the record say about IC50 for CC(C)=CC[C@@H](OC(=O)Cc1ccc(Oc2ccccc2)cc1)C1=CC(=O)c2c(O)ccc(O)c2C1=O ?
Marked response: 1240
